- Test system: HT-29
- assay_notes: Cytotoxicity against human HT-29 cells after 24 hrs by MTT assay in presence of snake venom secretory phospholipase A2
- Assay type: functional, cell-based
- settings: HT-29, 24 h
metric: IC50 (µM)
Express it in µM; write the number only.

[Q] Data request, read-out IC50, for CCCCC/C=C/C=C1\C(=O)C=C[C@H]1C/C=C/CCCC(=O)O[C@H](COCCCCCCCCCCCCCCCCCC)COP(=O)(O)OC[C@@H](O)CO
[A] 2.2

[Q] Data request, read-out IC50, for CCCCC/C=C/C=C1\C(=O)C=C[C@H]1C/C=C/CCCC(=O)O[C@H](COC(=O)CCCCCCCCCCCCCCCCC)COP(=O)([O-])OC[C@@H](O)CO.[Na+]
[A] 6.4

Where these numbers come from: ChEMBL document CHEMBL1208725
